Tested on: MCF7
assay_explanation: Cytotoxicity against human MCF7 cells measured after 8 days
Format: functional, cell-based
stated_conditions: MCF7, 192 h
measured_metric: IC50 (µM)
Entry rule: numbers only, all in µM.

Need IC50, item "C/C=C/Cn1cc(-c2cc(OC)c(C(=O)N3CCOCC3)cc2OC)c2cc(C)[nH]c2c1=O"
1.34

Try this compound too: "C/C=C/Cn1cc(-c2ccc(C(=O)N3CCOCC3)cc2)c2cc[nH]c2c1=O"
20

Another: "C/C=C/Cn1cc(-c2ccc(C(C)(C)O)cc2OC)c2cc[nH]c2c1=O"
20

----------
Could you please report measured IC50 for the items listed next?
Test system: MC-38
assay_explanation: Cytotoxicity against mouse MC38 ovalbumin cells measured after 8 days
Format: functional, cell-based
stated_conditions: MC-38, 192 h
Please format your answer as a value with the unit trailing.

Need IC50 of "C/C=C/Cn1cc(-c2ccc(C(C)(C)O)cc2OC)c2cc[nH]c2c1=O" , thanks.
20 µM

Consider next the compound "C/C=C/Cn1cc(-c2ccc(C(=O)N3CCOCC3)cc2)c2cc[nH]c2c1=O" in the same way.
16.7 µM

----------
Tested on: SK-BR-3
assay_explanation: Cytotoxicity against human SK-BR-3 cells measured after 3 days
Format: functional, cell-based
stated_conditions: SK-BR-3, 72 h
measured_metric: IC50 (µM)
# value in µM; strip the unit string

Which IC50 value is on record for "C/C=C/Cn1cc(-c2cc(OC)c(C(=O)N3CCOCC3)cc2OC)c2cc(C)[nH]c2c1=O" ?
5

----------
assay_explanation: Cytotoxicity against human COV362.4 cells measured after 8 days
Assay type: functional, cell-based
stated_conditions: COV362.4, 192 h
Record form. Attribute: pIC50. Fill in for each entry.
Keep it numeric: pIC50 is minus log10 of the concentration in mol/L.

pIC50 lookup needed for "C/C=C/Cn1cc(-c2ccc(C(=O)N3CCOCC3)cc2)c2cc[nH]c2c1=O" , thanks.
4.70

Another molecule to look at: "C/C=C/Cn1cc(-c2ccc(C(C)(C)O)cc2OC)c2cc[nH]c2c1=O"
4.70

----------
Could you please report measured pKd for the items listed next?
test_target: E3 ubiquitin-protein ligase TRIM33 (Homo sapiens, UniProt Q9UPN9)
Sequence (Q9UPN9 whole entry, the tested form may be a part): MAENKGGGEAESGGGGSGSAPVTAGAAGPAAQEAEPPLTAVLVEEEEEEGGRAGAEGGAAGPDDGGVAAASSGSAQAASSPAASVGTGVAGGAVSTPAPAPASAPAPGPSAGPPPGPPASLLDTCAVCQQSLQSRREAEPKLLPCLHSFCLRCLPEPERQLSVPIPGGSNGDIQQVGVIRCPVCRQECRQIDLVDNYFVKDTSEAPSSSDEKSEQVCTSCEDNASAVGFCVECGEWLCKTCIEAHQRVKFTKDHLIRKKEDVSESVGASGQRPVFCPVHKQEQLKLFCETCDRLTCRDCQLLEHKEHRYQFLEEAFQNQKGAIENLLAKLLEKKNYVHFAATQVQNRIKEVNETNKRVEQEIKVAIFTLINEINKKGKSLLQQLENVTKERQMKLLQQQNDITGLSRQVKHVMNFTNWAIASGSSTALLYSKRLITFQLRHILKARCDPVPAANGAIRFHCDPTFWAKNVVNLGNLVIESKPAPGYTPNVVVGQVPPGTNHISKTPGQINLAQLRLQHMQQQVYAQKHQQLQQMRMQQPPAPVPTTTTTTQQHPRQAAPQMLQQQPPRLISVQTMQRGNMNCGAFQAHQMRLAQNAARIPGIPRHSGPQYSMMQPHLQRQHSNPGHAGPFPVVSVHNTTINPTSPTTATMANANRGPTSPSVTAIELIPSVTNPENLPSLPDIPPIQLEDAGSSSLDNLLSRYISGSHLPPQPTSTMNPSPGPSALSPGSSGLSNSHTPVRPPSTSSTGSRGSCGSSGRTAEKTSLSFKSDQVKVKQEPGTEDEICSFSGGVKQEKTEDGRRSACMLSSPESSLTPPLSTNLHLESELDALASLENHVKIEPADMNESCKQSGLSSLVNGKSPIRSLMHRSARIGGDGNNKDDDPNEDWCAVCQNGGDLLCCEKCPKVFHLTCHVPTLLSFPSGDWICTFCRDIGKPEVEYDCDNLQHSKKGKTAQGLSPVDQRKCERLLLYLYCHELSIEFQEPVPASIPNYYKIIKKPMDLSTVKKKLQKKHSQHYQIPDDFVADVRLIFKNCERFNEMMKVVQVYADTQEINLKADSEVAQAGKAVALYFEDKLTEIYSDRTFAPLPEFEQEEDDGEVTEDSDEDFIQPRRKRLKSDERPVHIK
assay_explanation: Binding affinity to human partial length TRIM33 (D882 to A1087 residues) expressed in bacterial expression system by BROMOscan assay
pKd: −log10 of the molar value.

// pKd lookup, key: "C/C=C/Cn1cc(-c2cc(OC)c(C(=O)N3CCOCC3)cc2OC)c2cc(C)[nH]c2c1=O"
< 5.30

And "C/C=C/Cn1cc(-c2ccc(C(=O)N3CCOCC3)cc2)c2cc[nH]c2c1=O" ?
< 5.00

Consider next the molecule "C/C=C/Cn1cc(-c2cc(OC)c(C(C)(C)O)cc2OC)c2cc(C)[nH]c2c1=O" in the same way.
< 5.00

Thanks! And "C/C=C/Cn1cc(-c2ccc(C(C)(C)O)cc2OC)c2cc[nH]c2c1=O" ?
< 5.00

----------
Test system: OCI-LY19
assay_explanation: Cytotoxicity against human OCILY19 cells measured after 3 days
Format: functional, cell-based
stated_conditions: OCI-LY19, 72 h
measured_metric: IC50 (µM)
Lab book: enter the figure in µM, no units written.

Notebook: pull reported IC50 for OCI-LY19, entry "C/C=C/Cn1cc(-c2cc(OC)c(C(=O)N3CCOCC3)cc2OC)c2cc(C)[nH]c2c1=O"
5
